- Tested On: PI3-kinase p110-delta/p85-alpha (Homo sapiens) (UniProt P27986+O00329)
- Protocol: Enzymatic radiometric [Km ATP] KinaseProfiler LeadHunter assay, kinase: PI3 Kinase (p110-delta/p85-alpha), catalogue number: 14-604KP The assay has been performed by Eurofins Discovery.
- Assay type: protein-complex assay
- Conditions: ATP concentration 200.0 uM, Test compound concentration 10.0 uM
Please respond with reported Activity for every item in the list.
Give just the number in %; leave the unit off.

stdin: Please give the measured Activity for this compound: Cc1nn(C)cc1-c1cc2c(N[C@H](c3ccc4c(c3)S(=O)(=O)CCC4)C(C)C)ncnc2[nH]1
stdout: 101

stdin: CC(C)[C@H](Nc1ncnc2[nH]ccc12)c1ccc2c(c1)S(=O)(=O)CCC2 ?
stdout: 99

stdin: COc1ccc([C@@H](Cc2nnn[nH]2)NC(=O)c2ncnc3[nH]ccc23)cc1 ?
stdout: 99

stdin: Cn1ncc(-c2cc3c(N[C@@H](c4ccc5c(n4)OCCO5)C(C)(C)C)ncnc3[nH]2)c1C#N ?
stdout: 73

stdin: CC(C)[C@@H](Nc1ncnc2[nH]c(C(=O)N[C@@H]3CCN(C)C3)cc12)c1ccc2c(c1)S(=O)(=O)CCC2 ?
stdout: 99

stdin: CNCc1cc(-c2cc3c(N[C@@H](c4ccc5c(c4)S(=O)(=O)CCC5)C(C)C)ncnc3[nH]2)co1 ?
stdout: 80

###

- Tested On: Phosphatidylinositol 4,5-bisphosphate 3-kinase catalytic subunit gamma isoform (Homo sapiens)
- Protocol: Enzymatic radiometric [Km ATP] KinaseProfiler LeadHunter assay, kinase: PI3 Kinase (p120-gamma), catalogue number: 14-558KP The assay has been performed by Eurofins Discovery.
- Conditions: ATP concentration 100.0 uM, Test compound concentration 10.0 uM
Recorded Endpoint: Activity (%)
Give just the number in %; leave the unit off.

stdin: Please give the measured Activity for this molecule: CC(C)[C@@H](Nc1ncnc2[nH]ccc12)c1ccc2c(c1)S(=O)(=O)CCC2
stdout: 103

stdin: Cn1ncc(-c2cc3c(N[C@@H](c4ccc5c(n4)OCCO5)C(C)(C)C)ncnc3[nH]2)c1C#N ?
stdout: 88

stdin: CNC(=O)Cn1cc(-c2cc3c(N[C@@H](c4ccc5c(c4)S(=O)(=O)CCC5)C(C)C)ncnc3[nH]2)cn1 ?
stdout: 93

stdin: CC(C)[C@@H](Nc1ncnc2[nH]c(C(=O)N[C@@H]3CCN(C)C3)cc12)c1ccc2c(c1)S(=O)(=O)CCC2 ?
stdout: 97

stdin: CC(C)[C@H](Nc1ncnc2[nH]c(-c3cnn(C)c3C#N)cc12)c1ccc2c(n1)OCCO2 ?
stdout: 80

stdin: CC(C)[C@H](Nc1ncnc2[nH]ccc12)c1ccc2c(c1)S(=O)(=O)CCC2 ?
stdout: 98

stdin: C[C@H](C(=O)O)[C@@H](NC(=O)c1ncnc2[nH]ccc12)c1ccc(Br)cc1 ?
stdout: 97

stdin: Cc1nn(C)cc1-c1cc2c(N[C@H](c3ccc4c(c3)S(=O)(=O)CCC4)C(C)C)ncnc2[nH]1 ?
stdout: 96

stdin: CNCc1cc(-c2cc3c(N[C@@H](c4ccc5c(c4)S(=O)(=O)CCC5)C(C)C)ncnc3[nH]2)co1 ?
stdout: 96

stdin: COc1ccc([C@H](Cc2nnn[nH]2)NC(=O)c2ncnc3[nH]ccc23)cc1 ?
stdout: 88

stdin: COc1ccc([C@@H](Cc2nnn[nH]2)NC(=O)c2ncnc3[nH]ccc23)cc1 ?
stdout: 89

###

- Tested On: Ribosomal protein S6 kinase alpha-1 (Homo sapiens) (UniProt Q15418)
- Sequence (Q15418 whole entry): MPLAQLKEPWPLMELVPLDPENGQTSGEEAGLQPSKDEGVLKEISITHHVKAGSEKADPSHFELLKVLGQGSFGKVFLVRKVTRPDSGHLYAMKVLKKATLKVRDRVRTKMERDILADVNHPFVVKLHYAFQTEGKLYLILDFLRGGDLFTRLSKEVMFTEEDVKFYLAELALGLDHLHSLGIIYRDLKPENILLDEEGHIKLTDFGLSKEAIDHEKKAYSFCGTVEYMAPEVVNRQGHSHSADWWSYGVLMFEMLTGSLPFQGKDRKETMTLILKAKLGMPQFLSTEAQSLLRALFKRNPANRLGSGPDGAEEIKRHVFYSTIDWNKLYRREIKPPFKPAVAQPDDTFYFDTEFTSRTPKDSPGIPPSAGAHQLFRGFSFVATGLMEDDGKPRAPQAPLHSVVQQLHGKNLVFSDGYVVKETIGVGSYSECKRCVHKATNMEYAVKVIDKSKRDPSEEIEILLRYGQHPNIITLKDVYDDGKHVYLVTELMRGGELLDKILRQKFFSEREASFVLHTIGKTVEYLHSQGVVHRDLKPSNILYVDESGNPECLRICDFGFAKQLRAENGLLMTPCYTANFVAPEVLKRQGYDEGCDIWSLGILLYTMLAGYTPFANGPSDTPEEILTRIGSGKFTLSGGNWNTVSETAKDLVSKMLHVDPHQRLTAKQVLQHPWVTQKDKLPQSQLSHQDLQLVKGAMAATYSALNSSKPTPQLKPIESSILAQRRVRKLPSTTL
- Protocol: Enzymatic radiometric [Km ATP] KinaseProfiler LeadHunter assay, kinase: Rsk1, catalogue number: 14-509KP The assay has been performed by Eurofins Discovery.
- Conditions: ATP concentration 45.0 uM, Test compound concentration 10.0 uM
Recorded Endpoint: Activity (%)
Give just the number in %; leave the unit off.

stdin: Fill in the recorded Activity for this compound, with Ribosomal protein S6 kinase alpha-1 (Homo sapiens) (UniProt Q15418) as test system: CNC(=O)Cn1cc(-c2cc3c(N[C@@H](c4ccc5c(c4)S(=O)(=O)CCC5)C(C)C)ncnc3[nH]2)cn1
stdout: 94

stdin: CC(C)[C@H](Nc1ncnc2[nH]ccc12)c1ccc2c(c1)S(=O)(=O)CCC2 ?
stdout: 102

stdin: Cn1ncc(-c2cc3c(N[C@@H](c4ccc5c(n4)OCCO5)C(C)(C)C)ncnc3[nH]2)c1C#N ?
stdout: 136

stdin: CC(C)[C@@H](Nc1ncnc2[nH]ccc12)c1ccc2c(c1)S(=O)(=O)CCC2 ?
stdout: 92

stdin: CNCc1cc(-c2cc3c(N[C@@H](c4ccc5c(c4)S(=O)(=O)CCC5)C(C)C)ncnc3[nH]2)co1 ?
stdout: 90

stdin: COc1ccc([C@H](Cc2nnn[nH]2)NC(=O)c2ncnc3[nH]ccc23)cc1 ?
stdout: 102

stdin: C[C@H](C(=O)O)[C@@H](NC(=O)c1ncnc2[nH]ccc12)c1ccc(Br)cc1 ?
stdout: 88

stdin: CC(C)[C@@H](Nc1ncnc2[nH]c(C(=O)N[C@@H]3CCN(C)C3)cc12)c1ccc2c(c1)S(=O)(=O)CCC2 ?
stdout: 94

###

- Tested On: cGMP-dependent protein kinase 1 (Homo sapiens)
- Protocol: Enzymatic radiometric [Km ATP] KinaseProfiler LeadHunter assay, kinase: PKG1-alpha, catalogue number: 14-688KP The assay has been performed by Eurofins Discovery.
- Conditions: ATP concentration 90.0 uM, Test compound concentration 10.0 uM
Recorded Endpoint: Activity (%)
Give just the number in %; leave the unit off.

stdin: Fill in the recorded Activity for this compound, with cGMP-dependent protein kinase 1 (Homo sapiens) as test system: CC(C)[C@H](Nc1ncnc2[nH]c(-c3cnn(C)c3C#N)cc12)c1ccc2c(n1)OCCO2
stdout: 130

stdin: Cc1nn(C)cc1-c1cc2c(N[C@H](c3ccc4c(c3)S(=O)(=O)CCC4)C(C)C)ncnc2[nH]1 ?
stdout: 128

stdin: CNC(=O)Cn1cc(-c2cc3c(N[C@@H](c4ccc5c(c4)S(=O)(=O)CCC5)C(C)C)ncnc3[nH]2)cn1 ?
stdout: 120

stdin: CNCc1cc(-c2cc3c(N[C@@H](c4ccc5c(c4)S(=O)(=O)CCC5)C(C)C)ncnc3[nH]2)co1 ?
stdout: 115

stdin: CC(C)[C@@H](Nc1ncnc2[nH]ccc12)c1ccc2c(c1)S(=O)(=O)CCC2 ?
stdout: 88

stdin: CC(C)[C@H](Nc1ncnc2[nH]ccc12)c1ccc2c(c1)S(=O)(=O)CCC2 ?
stdout: 123

stdin: C[C@H](C(=O)O)[C@@H](NC(=O)c1ncnc2[nH]ccc12)c1ccc(Br)cc1 ?
stdout: 118

stdin: COc1ccc([C@H](Cc2nnn[nH]2)NC(=O)c2ncnc3[nH]ccc23)cc1 ?
stdout: 121

stdin: CC(C)[C@@H](Nc1ncnc2[nH]c(C(=O)N[C@@H]3CCN(C)C3)cc12)c1ccc2c(c1)S(=O)(=O)CCC2 ?
stdout: 116

stdin: COc1ccc([C@@H](Cc2nnn[nH]2)NC(=O)c2ncnc3[nH]ccc23)cc1 ?
stdout: 95

stdin: Cn1ncc(-c2cc3c(N[C@@H](c4ccc5c(n4)OCCO5)C(C)(C)C)ncnc3[nH]2)c1C#N ?
stdout: 127

###

- Tested On: Interleukin-1 receptor-associated kinase 4 (Homo sapiens)
- Sequence (whole entry): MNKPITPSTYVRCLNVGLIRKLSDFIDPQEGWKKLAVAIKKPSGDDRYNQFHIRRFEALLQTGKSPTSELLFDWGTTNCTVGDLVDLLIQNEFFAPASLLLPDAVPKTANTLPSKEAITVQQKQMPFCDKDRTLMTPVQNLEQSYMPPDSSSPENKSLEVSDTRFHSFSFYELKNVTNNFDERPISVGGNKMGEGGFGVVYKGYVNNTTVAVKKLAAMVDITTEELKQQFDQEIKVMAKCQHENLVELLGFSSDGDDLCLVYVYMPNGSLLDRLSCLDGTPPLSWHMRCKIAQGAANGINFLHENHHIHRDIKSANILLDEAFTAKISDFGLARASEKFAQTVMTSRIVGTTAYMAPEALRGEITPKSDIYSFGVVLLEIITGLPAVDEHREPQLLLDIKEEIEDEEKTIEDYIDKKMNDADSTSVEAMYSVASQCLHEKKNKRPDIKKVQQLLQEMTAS
- Protocol: Enzymatic radiometric [Km ATP] KinaseProfiler LeadHunter assay, kinase: IRAK4, catalogue number: 14-599KP The assay has been performed by Eurofins Discovery.
- Conditions: ATP concentration 200.0 uM, Test compound concentration 10.0 uM
Recorded Endpoint: Activity (%)
Give just the number in %; leave the unit off.

stdin: Fill in the recorded Activity for this compound, with Interleukin-1 receptor-associated kinase 4 (Homo sapiens) as test system: C[C@H](C(=O)O)[C@@H](NC(=O)c1ncnc2[nH]ccc12)c1ccc(Br)cc1
stdout: 106

stdin: Cn1ncc(-c2cc3c(N[C@@H](c4ccc5c(n4)OCCO5)C(C)(C)C)ncnc3[nH]2)c1C#N ?
stdout: 132

stdin: CC(C)[C@H](Nc1ncnc2[nH]ccc12)c1ccc2c(c1)S(=O)(=O)CCC2 ?
stdout: 112
